# Protocol description: ATG_Oct_MLP_CIS: Attagene CIS-FACTORIAL HepG2 Assay for human Octamer-Binding Transcription Factor (Oct) (AID 2282993)
# Assay setup: HepG2 Attagene cis-factorial Oct reporter, mRNA; actives raise or lower the signal
Active and inactive are the calls of the source. How the source made its calls: active means hit-call score of the fitted dose curve at least 0.9, where 1 is the maximum; inactive means score below 0.9.
Outcomes: true for active, false for inactive

{"columns": ["Compound", "Class label"],
 "data": [
  ["CCC(C)(C)c1ccc(O)cc1", "false"],
  ["COP(=O)(CCC(=O)NCO)OC", "false"],
  ["COCCOCCO", "false"],
  ["Cn1[nH]nnc1=S", "false"],
  ["COP(=O)(O)OC", "false"],
  ["O=NN1CCCC1", "false"],
  ["CCOS(=O)(=O)OCC", "false"],
  ["O=S(=O)(F)C(F)(F)C(F)(F)C(F)(F)C(F)(F)C(F)(F)C(F)(F)C(F)(F)C(F)(F)F", "false"],
  ["CNC(=O)Oc1ccc(N(C)C)c(C)c1", "false"],
  ["CN(C)C(=O)Cl", "false"],
  ["FC(F)(F)C(F)(C(F)(F)F)C(F)(F)C(F)(F)CC1CO1 (centres undefined)", "false"],
  ["CCOP(=S)(OCC)SCSc1ccc(Cl)cc1", "false"],
  ["O=[N+]([O-])c1ccccc1", "false"],
  ["Nc1cc2c3c(c1)C(c1ccccc1)=N[C@@H](NC(=O)c1cccnc1)C(=O)N3CC2", "true"]
]}

###

# System under test: chimpanzee Androgen Receptor (AR), AR (gene 747460) (UniProt O97775)
# Sequence (O97775 whole entry, looked up): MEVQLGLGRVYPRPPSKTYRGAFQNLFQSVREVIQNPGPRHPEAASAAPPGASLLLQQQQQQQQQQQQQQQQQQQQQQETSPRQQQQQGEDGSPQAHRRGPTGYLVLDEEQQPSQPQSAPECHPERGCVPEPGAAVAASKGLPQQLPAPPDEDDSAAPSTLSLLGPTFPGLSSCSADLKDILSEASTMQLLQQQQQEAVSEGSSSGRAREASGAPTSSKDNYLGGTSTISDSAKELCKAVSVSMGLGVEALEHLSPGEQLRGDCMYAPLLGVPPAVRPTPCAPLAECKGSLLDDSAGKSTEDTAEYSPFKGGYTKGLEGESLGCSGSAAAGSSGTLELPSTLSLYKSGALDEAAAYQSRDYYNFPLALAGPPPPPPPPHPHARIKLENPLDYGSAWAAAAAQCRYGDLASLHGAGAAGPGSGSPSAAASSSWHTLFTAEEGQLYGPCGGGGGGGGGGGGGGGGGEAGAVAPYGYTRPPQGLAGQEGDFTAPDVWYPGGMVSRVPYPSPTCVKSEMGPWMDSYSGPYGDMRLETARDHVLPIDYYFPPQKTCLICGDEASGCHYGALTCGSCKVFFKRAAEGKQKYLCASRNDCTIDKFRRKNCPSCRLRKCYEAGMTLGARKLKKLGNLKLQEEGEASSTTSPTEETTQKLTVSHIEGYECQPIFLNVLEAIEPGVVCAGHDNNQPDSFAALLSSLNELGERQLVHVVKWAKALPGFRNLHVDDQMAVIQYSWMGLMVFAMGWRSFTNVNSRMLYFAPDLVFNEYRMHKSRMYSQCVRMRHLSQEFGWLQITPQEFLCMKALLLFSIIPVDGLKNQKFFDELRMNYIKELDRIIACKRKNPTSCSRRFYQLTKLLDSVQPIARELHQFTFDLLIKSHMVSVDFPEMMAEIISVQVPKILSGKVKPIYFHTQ
# Protocol description: NVS_NR_cAR: NovaScreen (NVS) Nuclear Receptor Binding Assay for chimpanzee Androgen Receptor (AR) (AID 2283346);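 further: radioligand displacement from AR measured by scintillation counting in a cell-free assay; a loss of bound radioligand signal versus DMSO counts as binding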
Records with an inconclusive call do not appear. The source made the active and inactive calls. Rule for the calls: active = hit-call score of the fitted dose curve at least 0.9, where 1 is the maximum; inconclusive = response in the unintended direction; inactive = score below 0.9.
Measurement kind: AC50

{"columns": ["Compound", "Value observed"],
 "data": [
  ["O=S1(=O)OCC2C(CO1)C1(Cl)C(Cl)=C(Cl)C2(Cl)C1(Cl)Cl (centres undefined)", "inactive"],
  ["CCCCCCCc1ccc(O)cc1", "inactive"],
  ["O=P(OCC(Br)CBr)(OCC(Br)CBr)OCC(Br)CBr (centres undefined)", "21.8 µM (active)"],
  ["CC1(C)CN=C(NN=C(/C=C/c2ccc(C(F)(F)F)cc2)/C=C/c2ccc(C(F)(F)F)cc2)NC1", "25 µM (active)"]
]}

###

# Read-out: Macrophage colony-stimulating factor (MCSF), CSF1 (gene 1435)
# Protocol description: BSK_hDFCGF_MCSF: BioMAP Diversity Plus: hDFCGF Assay for Macrophage colony-stimulating factor (MCSF) Biomarker Activity (AID 2283060)
# Assay setup: primary human foreskin fibroblasts; actives raise or lower the signal
Active and inactive are the calls of the source. How the source made its calls: active means hit-call score of the fitted dose curve at least 0.9, where 1 is the maximum; inactive means score below 0.9.

{"columns": ["Compound", "AC50"],
 "data": [
  ["O=P(OCC(Br)CBr)(OCC(Br)CBr)OCC(Br)CBr (centres undefined)", "inactive"],
  ["CCCCN(CCCC)SN(C)C(=O)Oc1cccc2c1OC(C)(C)C2", "7.15 µM (active)"],
  ["CCOP(=S)(OCC)SCSCC", "inactive"],
  ["CC(C)(C)OOC(C)(C)C", "inactive"],
  ["c1ccc2c(c1)Nc1ccccc1S2", "9.32 µM (active)"],
  ["CCOP(=S)(Oc1ccc([N+](=O)[O-])cc1)c1ccccc1 (centres undefined)", "7.24 µM (active)"],
  ["CC(Cl)CN(C)C (centres undefined)", "inactive"],
  ["CCOP(=S)(S)OCC", "inactive"],
  ["O=C(O)C=CC(F)(C(F)(F)F)C(F)(F)F", "inactive"],
  ["CC(C)(C)c1ccccc1OP(=O)(Oc1ccccc1)Oc1ccccc1", "20 µM (active)"],
  ["O=c1ssc(Cl)c1Cl", "3.29 µM (active)"],
  ["c1cc2c3c(cccc3c1)CC2", "inactive"],
  ["O=S1(=O)OCC2C(CO1)C1(Cl)C(Cl)=C(Cl)C2(Cl)C1(Cl)Cl (centres undefined)", "inactive"],
  ["CCOc1ccc(C(C)(C)COCc2cccc(Oc3ccccc3)c2)cc1", "2.26 µM (active)"]
]}

Values were extracted from PubChem BioAssay (EPA / NIEHS).
